Each record here notes measured EC50 of neuritotoxicity protection, iN cellular assay, Mean.
target: soluble synaptotoxic Aβ in aqueous human AD brain extract (human, UniProt P05067 18-701); experiment: cell-based or functional assay
Sequence (P05067 18-701): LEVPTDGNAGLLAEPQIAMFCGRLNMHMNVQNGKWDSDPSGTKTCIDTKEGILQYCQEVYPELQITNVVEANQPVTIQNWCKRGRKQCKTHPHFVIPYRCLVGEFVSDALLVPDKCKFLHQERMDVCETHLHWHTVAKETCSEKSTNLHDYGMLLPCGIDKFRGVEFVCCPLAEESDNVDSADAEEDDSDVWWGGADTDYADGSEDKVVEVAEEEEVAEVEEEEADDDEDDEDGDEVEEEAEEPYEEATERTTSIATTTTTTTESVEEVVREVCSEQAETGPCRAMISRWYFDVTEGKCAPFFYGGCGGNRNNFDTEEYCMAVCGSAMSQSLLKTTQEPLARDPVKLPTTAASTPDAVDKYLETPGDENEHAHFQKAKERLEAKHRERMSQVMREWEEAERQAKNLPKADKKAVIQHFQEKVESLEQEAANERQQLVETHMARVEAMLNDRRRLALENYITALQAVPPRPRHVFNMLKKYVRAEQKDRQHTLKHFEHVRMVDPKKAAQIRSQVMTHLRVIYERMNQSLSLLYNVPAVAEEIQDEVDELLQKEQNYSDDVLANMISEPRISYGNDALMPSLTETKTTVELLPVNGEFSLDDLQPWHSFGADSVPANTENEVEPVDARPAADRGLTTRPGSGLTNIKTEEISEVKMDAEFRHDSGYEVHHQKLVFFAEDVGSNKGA

Use the examples below as a reference point.
>>> meas_value("rB73 (recombinant B73, human IgG1 LALA) (antibody, V domains shown) VH: QLQLQMSGPGLVKPSETLSLTCTVSGGSISSSSYYWGWIRQSPGKGLEWIGSIYYSGRTYYNPSLKSRVTISVDTSKNQFSLKLSSVTAADTAMYYCARRSSGRPYYWGQGTLVTVSS VL: QAVVTQESALTTSPGGTVILTCRSSTGAVTTSNYANWVQEKPDHLFTGLIGETNNRAPGVPVRFSGSLIGDKAALTITGAQTEDDAMYFCALWYSTHWVFGGGTKLTVLG")
"1.94 µg/mL"
>>> meas_value("rC11 (recombinant C11, human IgG1 LALA) (antibody, V domains shown) VH: QVQLQESGPGLVKPSETLSLTCTVSGGSISSYYWSWIRQPPGKGLEWIGSIYYSGTTKYNPSLKSRVTISVGTSKNQFSLKLNSVTAADTAVYYCARDNWGSRFDYWGQGTLVTVSS VL: DIQMTQSPSSLSASVGDRVTITCRASQGIRNDLGWYQQKPGKAPTLLIYAASSLQSGVPSRFSGSGSGTDFTLTISSLQPEDFATYYCLQDFNYPYTFGQGTKLEIKR")
"2.79 µg/mL"
>>> meas_value("rB28 (recombinant B28, human IgG1 LALA) (antibody, V domains shown) VH: QVQLVESGGGVVQPGRSVRLSCAATGFTFSSYGMHWVRQAPGKGLEWVAVIWFDGSNEYYADSVRGRFTISRDNSKNTLYLQMNSLRAEDTAVYYCARRGRVGVTRNYYYYNMDVWGQGTTVTVSS VL: AIQMTQSPSSLSASVGDRVTITCRASQGIRNDLGWFQQKPGKAPKLLIYPASSLQSGVPSRFSGSGSDTDFTLTISSLQPEDFATYYCLQDYNFPFTFGPGTKVDIKR")
"1.53 µg/mL"

For the next question, use this binder.
Using the record for rB24 (recombinant B24, human IgG1 LALA) (antibody, V domains shown) VH: EVQLLESGGGLVQPGGSLRLSCAASGFTFSSYAMTWVRQAPGEGLEWVSTISGSGIRTYYADSVKGRFTISRDNSKNTMYLQMNSLRAEDTAVYYCAKDGLTGDRRWYFDLWGRGTLVTVSS VL: EIVMTQSPATLSLSPGERATLSCRASQSVSSSYFSWYQQKPGQAPRLLIYGASTRATGIPARFSGSGSGTDFTLTISSLQPEDFAVYYCQQDSNLPLTFGGGTKVEIKR , report its EC50 of neuritotoxicity protection, iN cellular assay, Mean.
3.97 µg/mL
